Known pIC50 of a selection of compounds
# Tested on: DLD1
# experimental.details: Cell line proliferation study
# Type: cell-based, human
# measurement.conditions: Homo sapiens, DLD-1; DLD1, colon; 72 hours; read-out: gIC50
pIC50: −log10 of the molar value.

[
  {
    "compound": "CC(=O)Nc1cccc(-n2c(=O)n(C3CC3)c(=O)c3c(Nc4ccc(I)cc4F)n(C)c(=O)c(C)c32)c1 [Compound A]",
    "modifier.sign": "=",
    "pIC50": 6.47
  },
  {
    "compound": "Cn1ncc(Cl)c1-c1cc(C(=O)N[C@H](CN)Cc2ccc(F)c(F)c2)oc1Cl [Compound B]",
    "modifier.sign": "<",
    "pIC50": 6.00
  }
]

---

# System: Colo320HSR
# experimental.details: Cell line proliferation study
# Type: cell-based, human
# measurement.conditions: Homo sapiens, COLO-320-HSR, colon, 72 hours, read-out: gIC50
# Description: In a separate study, combination drug tests with Compounds A and B were conducted using a panel of cell lines from human colon cancers (n=26), lung cancers (n=15) and pancreatic cancers (n=6). Cell lines were obtained from commercial vendors (ATCC and DSMZ). […]
pIC50: −log10 of the molar value.
property: pIC50

[
  {
    "molecule": "Cn1ncc(Cl)c1-c1cc(C(=O)N[C@H](CN)Cc2ccc(F)c(F)c2)oc1Cl [Compound B]",
    "value": "< 6.00"
  },
  {
    "molecule": "CC(=O)Nc1cccc(-n2c(=O)n(C3CC3)c(=O)c3c(Nc4ccc(I)cc4F)n(C)c(=O)c(C)c32)c1 [Compound A]",
    "value": "< 6.60"
  }
]

---

# Tested on: HCC1419
# experimental.details: Cell growth inhibition assay
# Type: cell-based
# measurement.conditions: Homo sapiens; HCC1419, breast, HER2+, WT; single agent; read-out: IC50 Single Agent (mean +/- std)

[
  {
    "compound": "CC(=O)Nc1cccc(-n2c(=O)n(C3CC3)c(=O)c3c(Nc4ccc(I)cc4F)n(C)c(=O)c(C)c32)c1 [Compound A]",
    "IC50": "> 1000 nM"
  },
  {
    "compound": "Cn1ncc(Cl)c1-c1cc(C(=O)N[C@H](CN)Cc2ccc(F)c(F)c2)oc1Cl [Compound B]",
    "IC50": "> 1000 nM"
  }
]

---

Quick reference for IC50 among some molecules
# Tested on: HPAFII
# experimental.details: Cell line proliferation study
# Format: cell-based, human
# measurement.conditions: Homo sapiens, HPAF-II, pancreas, 72 hours, read-out: gIC50
property: IC50

[
  {
    "smiles.text": "CC(=O)Nc1cccc(-n2c(=O)n(C3CC3)c(=O)c3c(Nc4ccc(I)cc4F)n(C)c(=O)c(C)c32)c1",
    "target.of.assay": "HPAFII",
    "property": "IC50",
    "value": "15.9 nM"
  },
  {
    "smiles.text": "Cn1ncc(Cl)c1-c1cc(C(=O)N[C@H](CN)Cc2ccc(F)c(F)c2)oc1Cl",
    "target.of.assay": "HPAFII",
    "property": "IC50",
    "value": "> 1000 nM"
  }
]

---

# System: SW480
# experimental.details: Cell line proliferation study
# Type: cell-based, human
# measurement.conditions: Homo sapiens; SW480, colon; 72 hours; read-out: gIC50
Measured IC50 by item
property: IC50 (nM)

[
  {
    "compound": "Cn1ncc(Cl)c1-c1cc(C(=O)N[C@H](CN)Cc2ccc(F)c(F)c2)oc1Cl [Compound B]",
    "property": "IC50",
    "unit.info": "nM",
    "modifier.sign": ">",
    "value": 1000
  },
  {
    "compound": "CC(=O)Nc1cccc(-n2c(=O)n(C3CC3)c(=O)c3c(Nc4ccc(I)cc4F)n(C)c(=O)c(C)c32)c1 [Compound A]",
    "property": "IC50",
    "unit.info": "nM",
    "modifier.sign": "=",
    "value": 326
  }
]

Value source: patent US20150094321A1
